organism: Homo sapiens; assay: To identify inhibition of the IFN signalling (Jak-Stat) pathway via expression of an eGFP reporter gene under the control of an IFN-stimulated response element (ISRE) containing MxA promoter.; assay type: functional; parameters: scale not given: direction of the effect not stated beside the values; conditions: 30 µM
outcome measure: Percent Effect (%)
Give bare numbers, in %.

compound	Percent Effect [%]
Cc1ccc(N2CCO[C@H]3CN(Cc4ccncc4)C[C@H]32)nn1	4.04
O=C1CC2(CCN(Cc3ccccn3)C2)CN1c1cncnc1 (configuration not stated)	-0.29
Cc1cccc(CN2C[C@@H]3CCCO[C@@H]3[C@H](NS(C)(=O)=O)C2)n1	-3.89
CN1C(=O)C2(CCN(CCO)C2)c2ccccc21 (configuration not stated)	-2.44
Cc1noc(C)c1CN1CCCC2(CCN(C(=O)NC3CC3)C2)C1 (configuration not stated)	16.8

Give measured Percent Effect for every item shown.
1. CCN1CCC(c2cncc(N(C)C)n2)CC1
2. O=C(NCc1ccccn1)[C@]12COC[C@H]1CN(C1CCC1)C2
3. CCN1C[C@H]2[C@@H](C1)N(S(=O)(=O)c1cccnc1)CC[C@H]2OC
4. O=C(NC1CCC1)[C@@H]1C[C@@H]2CCN(Cc3ccncc3)C[C@H]2O1
5. c1ccc(N2CCCC3(CCN(Cc4nccs4)C3)C2)nc1 (configuration not stated)
6. O=C1N(c2cncnc2)CCC12CCCN(Cc1ccccn1)C2 (configuration not stated)

Reply:
6.71
-5.18
14.5
21.8
4.2
-1.38

Hi! Can you tell me Percent Effect for each of these compounds?
1. c1cnc(N2CCCC3(CCN(Cc4ccncc4)C3)C2)nc1 (configuration not stated)
2. Cc1cccc(CN2CC[C@@H]3[C@@H]2CCN3C(=O)c2cnoc2C)n1
3. Fc1cnc(N2CCO[C@H]3CN(CC4CCCC4)C[C@H]32)nc1
4. COc1ccc(C(=O)C2CCCN(CCCn3cccn3)C2)c(OC)c1 (configuration not stated)

Reply:
[-1.82, 7.71, -7.5, 3.33]

Could you report Percent Effect for every entry in the following list?
1. Cc1noc(C)c1CN1CC[C@@H]2O[C@@H](COCC(C)C)CC[C@@H]21
2. CN(C)C(=O)COC[C@H]1CC[C@@H]2[C@@H](CCN2Cc2ccccn2)O1
3. Cc1cccc(C(=O)N2C[C@@H]3OCCN(C(C)C)[C@@H]3C2)n1
4. CO[C@@H]1CC[C@H]2[C@H]1OCCN2CC1CCOCC1

Reply:
[8.8, -3.32, -20.9, 1.72]

# map each compound to its Percent Effect
1. CN(C)c1ncc2c(n1)C1(CCN(CC3CC3)C1)COC2 (configuration not stated)
2. Cc1c(CC(=O)N2CCN(CC(F)(F)F)CC2)nnn1-c1ccccc1
3. COc1cc(OC)c(C2SCC(=O)Nc3n[nH]cc32)cc1OC (configuration not stated)

Reply:
[-7.22, 11.9, 20.6]

###

target: Aspartate--tRNA(Asp/Asn) ligase (Mycobacterium tuberculosis (strain ATCC 25618 / H37Rv)); experiment: Assay for Asp RNA synthetase-1 from Mycobacterium tuberculosis; assay type: functional; design: scale not given: direction of the effect not stated beside the values; settings: 30 µM; note: in the data most compounds retested in dose-response had high values
outcome measure: Percent Effect

As a guide, the following entries are already answered.
compound	experimental system	Percent Effect
COC(=O)CCc1c(C)nc2cc(O)nn2c1C	Aspartate--tRNA(Asp/Asn) ligase (Mycobacterium tuberculosis (strain ATCC 25618 / H37Rv))	-3.67%
CC(C)(C)NC(=O)CNC(=O)CCc1ccccc1Br	Aspartate--tRNA(Asp/Asn) ligase (Mycobacterium tuberculosis (strain ATCC 25618 / H37Rv))	0.279%
O=C1CC(c2ccccc2)C2(CCN(CC3CC3)CC2)N1 (stereo not given)	Aspartate--tRNA(Asp/Asn) ligase (Mycobacterium tuberculosis (strain ATCC 25618 / H37Rv))	-1.66%
CCc1nc(CN2CCN(C(=O)C3CCCCC3)CC2)cs1	Aspartate--tRNA(Asp/Asn) ligase (Mycobacterium tuberculosis (strain ATCC 25618 / H37Rv))	-0.656%
O=C(CCCc1cn[nH]c1)N1C[C@@H](CN2CCOCC2)[C@@H](CO)C1	Aspartate--tRNA(Asp/Asn) ligase (Mycobacterium tuberculosis (strain ATCC 25618 / H37Rv))	4.17%
Cc1csc(Nc2cc(C3CCCCN3C)nc(C)n2)n1 (stereo not given)	Aspartate--tRNA(Asp/Asn) ligase (Mycobacterium tuberculosis (strain ATCC 25618 / H37Rv))	-2.66%
CCc1ncncc1C(=O)N1CCCN(Cc2ccc(C)cc2)CC1	Aspartate--tRNA(Asp/Asn) ligase (Mycobacterium tuberculosis (strain ATCC 25618 / H37Rv))	7.33%
COc1ccccc1CC(=O)N1CC[C@@]2(CCCO2)[C@@H](OC)C1	Aspartate--tRNA(Asp/Asn) ligase (Mycobacterium tuberculosis (strain ATCC 25618 / H37Rv))	4.54%

Fill in Percent Effect for each of the 4 compounds listed.
1. O=C1c2cnc(N3CCOCC3)nc2CN1c1ccc2c(c1)OCO2
2. CC(=O)N(Cc1noc(C)n1)C1CCN(Cc2ccccc2C#N)C1 (stereo not given)
3. CC(O)CN(CC(=O)NC(=O)NCC(F)(F)F)c1ccccc1 (stereo not given)
4. Cc1cc(C(=O)NCc2cccnc2OC(C)C)no1

Reply:
7.52%
2.26%
-7.32%
-2.27%

Please supply Percent Effect for each of the following items, keeping them in order.
1. CNc1cc(C)nc(C2CN(Cc3cc[nH]n3)CCO2)c1 (stereo not given)
2. CCN1CCN(C2CCN(Cc3noc(C)n3)CC2)C1=O
3. CCc1nnc2n1CCN(Cc1ccc3c(c1)OCCO3)C2

Reply:
["-0.432%", "-5.45%", "4.98%"]

For each entry beneath this line, provide reported Percent Effect.
1. NC(=O)COc1ccc(CNCc2ccc(F)cc2F)cc1
2. CNS(=O)(=O)c1ccc(C(=O)N2CCCC2Cc2ccccc2)o1 (stereo not given)
3. OCC1CCCCN1c1ccc(-c2nc(-c3ccccc3F)no2)cn1 (stereo not given)

Reply:
["-4.09%", "-3.06%", "-6.87%"]

Consider the following items and state reported Percent Effect for each.
1. Cn1cc(CNCCn2cccn2)c(-c2cccnc2)n1
2. CCc1nnc2n1CCN(C(=O)C(C)COCc1ccccc1)C2 (stereo not given)
3. O=C(NCCC(=O)N1CCCc2ccccc21)c1c(O)cc(F)cc1F

Reply:
1. 1.65%
2. 0.562%
3. -3.63%

Give me Percent Effect for each of these compounds, listed below.
1. O=C(COc1cccc2c1CCC2=O)NCCOc1ccccc1
2. Cc1nnc(NCC2(c3ccccc3)CC2)c(C#N)c1C
3. CSCC(CCO)NC(=O)Nc1cccc(Br)c1 (stereo not given)
4. Cc1cc(NC(=O)CN2CCCC2c2noc(C3CC3)n2)no1 (stereo not given)

Reply:
1: 12.7%; 2: 1.73%; 3: 8.05%; 4: 0.92%
